Biological target: UniProt:P50052
Sequence (P50052 whole entry): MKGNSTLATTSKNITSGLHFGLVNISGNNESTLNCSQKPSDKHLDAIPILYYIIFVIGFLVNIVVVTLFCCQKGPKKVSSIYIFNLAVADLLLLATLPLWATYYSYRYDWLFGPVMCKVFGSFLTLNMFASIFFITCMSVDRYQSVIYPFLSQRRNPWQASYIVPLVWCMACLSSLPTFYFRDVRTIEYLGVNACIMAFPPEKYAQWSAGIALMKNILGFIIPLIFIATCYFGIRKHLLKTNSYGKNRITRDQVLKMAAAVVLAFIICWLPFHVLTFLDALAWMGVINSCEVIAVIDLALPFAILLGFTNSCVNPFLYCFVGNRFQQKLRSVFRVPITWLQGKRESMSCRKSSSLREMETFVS
Lab note: compare IC50 with 3 nM, writing Satisfied if less and Not satisfied if equal or more.

>>> classification("CCCc1nc(CC)c(C(=O)OCc2cccc(C(=O)N(c3ccccc3)c3ccccc3)c2)n1Cc1ccc(-c2ccccc2-c2nn[nH]n2)cc1")
"Not satisfied"
>>> classification("CCCc1nc(CC)c(C(=O)OCCN(C(=O)OCCC(C)C)c2ccccc2)n1Cc1ccc(-c2ccccc2S(=O)(=O)NC(=O)OCCC(C)C)cc1F")
"Not satisfied"
>>> classification("CCCc1nc(CC)c(C(=O)OCc2ccccc2-c2ccccc2)n1Cc1ccc(-c2ccccc2-c2nnn[nH]2)cc1")
"Not satisfied"
>>> classification("CCCCN(Cc1ccccc1)C(=O)C#CCOC(=O)c1c(CC)nc(CCC)n1Cc1ccc(-c2ccccc2-c2nnn[nH]2)cc1")
"Not satisfied"
>>> classification("CCCc1nc(CC)c(C(=O)OCc2ccccc2OCCC(C)C)n1Cc1ccc(-c2ccccc2S(=O)(=O)NC(=O)OCCC(C)C)cc1F")
"Not satisfied"
>>> classification("CCCCOC(=O)NS(=O)(=O)c1ccccc1-c1ccc(Cn2c(CCC)nc(CC)c2C(=O)OCc2ccccc2C(=O)c2ccccc2)c(F)c1")
"Satisfied"
>>> classification("CCCc1nc(CC)c(C(=O)OCc2ccccc2C(=O)c2ccccc2)n1Cc1ccc(-c2ccccc2S(=O)(=O)NC(=O)OCC(C)C)cc1F")
"Satisfied"
>>> classification("CCCc1nc(CC)c(C(=O)OCc2ccccc2-c2ccsc2)n1Cc1ccc(-c2ccccc2S(=O)(=O)NC(=O)OCCC(C)C)cc1F")
"Not satisfied"
>>> classification("CCCc1nc(CC)c(C(=O)OCC#CC(=O)N(c2ccccc2)c2ccccc2)n1Cc1ccc(-c2ccccc2-c2nn[nH]n2)cc1")
"Not satisfied"
>>> classification("CCCc1nc(CC)c(C(=O)OCc2ccccc2NC(=O)c2ccccc2)n1Cc1ccc(-c2ccccc2S(=O)(=O)NC(=O)OCCC(C)C)cc1F")
"Satisfied"
>>> classification("CCCCN(Cc1ccccc1)C(=O)c1ccc(COC(=O)c2c(CC)nc(CCC)n2Cc2ccc(-c3ccccc3-c3nn[nH]n3)cc2)cc1")
"Not satisfied"
